Please provide measured EC50 for the entries that follow.
- target entity: glucokinase (GK), human enzyme (Homo sapiens, UniProt P35557)
- Sequence (P35557 1-465): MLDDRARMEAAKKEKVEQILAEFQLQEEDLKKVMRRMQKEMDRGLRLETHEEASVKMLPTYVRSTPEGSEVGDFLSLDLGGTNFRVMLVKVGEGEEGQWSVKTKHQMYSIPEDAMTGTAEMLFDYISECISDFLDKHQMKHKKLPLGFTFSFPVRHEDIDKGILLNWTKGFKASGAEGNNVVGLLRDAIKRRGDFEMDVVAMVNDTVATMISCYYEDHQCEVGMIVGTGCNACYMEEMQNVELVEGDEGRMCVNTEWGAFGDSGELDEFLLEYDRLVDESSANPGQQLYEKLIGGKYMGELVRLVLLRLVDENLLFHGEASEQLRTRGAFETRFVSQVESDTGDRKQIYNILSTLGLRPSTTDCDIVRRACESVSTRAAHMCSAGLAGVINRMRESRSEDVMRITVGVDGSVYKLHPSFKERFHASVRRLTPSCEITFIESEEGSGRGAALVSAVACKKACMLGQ
- test summary: Glucokinase Activation Screening Assay (coupled enzyme assay with PK/LDH, NADH decline at 340 nm)
- cond: 2 mM glucose

compound	recorded endpoint	data value
COCCOc1cc(Oc2ccc(S(C)(=O)=O)cc2)cnc1Nc1nccs1	EC50	1 to 10 µM
COCC(C)Oc1cc(Oc2ccccc2)cnc1Nc1nccs1 (centres unmarked)	EC50	1 to 10 µM
BrCc1csc(Nc2ccc(Br)cn2)n1	EC50	1 to 10 µM
O=S(=O)(c1ccccc1)c1ccc(Nc2nccs2)nc1	EC50	> 10 µM
NCCSCc1csc(Nc2ccc(Br)cn2)n1	EC50	> 10 µM
CC(=O)OCc1csc(Nc2ccc(Br)cn2)n1	EC50	1 to 10 µM
c1ccc(Oc2cnc(Nc3nccs3)c(OCC3CCCC3)c2)cc1	EC50	0.01 to 1 µM
c1ccc(Oc2cnc(Nc3nccs3)c(OC3CCCC3)c2)cc1	EC50	0.01 to 1 µM
COCCOc1cc(Oc2ccccc2)cnc1Nc1nccs1	EC50	1 to 10 µM
OCc1csc(Nc2ccc(Oc3ccccc3)cn2)n1	EC50	1 to 10 µM

Give EC50 for each of the items listed below.
1. Brc1ccc(Nc2nc(Cn3ccnc3)cs2)nc1
2. c1ccc(Sc2ccc(Nc3nccs3)nc2)cc1

Reply:
1: 1 to 10 µM; 2: > 10 µM

I have 2 compounds here; please give me EC50 for each one.
1. c1ccc(Oc2ccc(Nc3nccs3)nc2)cc1
2. CC(=O)OCc1csc(Nc2ccc(Oc3ccccc3)cn2)n1

Reply:
["> 10 µM", "> 10 µM"]

---

Provide the reported melting point of each item.

Please look at the items below and tell me melting point for each one, in order.
1. c1ccc(Oc2ccc(Nc3nccs3)nc2)cc1 [A8]
2. CCOC(=O)c1csc(Nc2ccc(Br)cn2)n1 [A4]
3. COCCOc1cc(Oc2ccccc2)cnc1Nc1nccs1 [A20]

Reply:
["161.4 to 162.4 °C", "299.8 to 300.8 °C", "140.6 to 140.9 °C"]

// for each compound below, give its melting point
1. OCc1csc(Nc2ccc(Br)cn2)n1 [A6]
2. CC(=O)OCc1csc(Nc2ccc(Br)cn2)n1 [A5]
3. CC(=O)OCc1csc(Nc2ccc(Oc3ccccc3)cn2)n1 [A9]
4. Cc1csc(Nc2ccc(Br)cn2)n1 [A1]
5. OCc1csc(Nc2ccc(Oc3ccccc3)cn2)n1 [A10]

Reply:
1: 207 to 209 °C; 2: 200.9 to 201.6 °C; 3: 158.5 to 160.5 °C; 4: 241.5 to 242.6 °C; 5: 130 to 131 °C
